# Tested Target: Progesterone receptor (Homo sapiens, UniProt P06401)
# Sequence (P06401 whole entry): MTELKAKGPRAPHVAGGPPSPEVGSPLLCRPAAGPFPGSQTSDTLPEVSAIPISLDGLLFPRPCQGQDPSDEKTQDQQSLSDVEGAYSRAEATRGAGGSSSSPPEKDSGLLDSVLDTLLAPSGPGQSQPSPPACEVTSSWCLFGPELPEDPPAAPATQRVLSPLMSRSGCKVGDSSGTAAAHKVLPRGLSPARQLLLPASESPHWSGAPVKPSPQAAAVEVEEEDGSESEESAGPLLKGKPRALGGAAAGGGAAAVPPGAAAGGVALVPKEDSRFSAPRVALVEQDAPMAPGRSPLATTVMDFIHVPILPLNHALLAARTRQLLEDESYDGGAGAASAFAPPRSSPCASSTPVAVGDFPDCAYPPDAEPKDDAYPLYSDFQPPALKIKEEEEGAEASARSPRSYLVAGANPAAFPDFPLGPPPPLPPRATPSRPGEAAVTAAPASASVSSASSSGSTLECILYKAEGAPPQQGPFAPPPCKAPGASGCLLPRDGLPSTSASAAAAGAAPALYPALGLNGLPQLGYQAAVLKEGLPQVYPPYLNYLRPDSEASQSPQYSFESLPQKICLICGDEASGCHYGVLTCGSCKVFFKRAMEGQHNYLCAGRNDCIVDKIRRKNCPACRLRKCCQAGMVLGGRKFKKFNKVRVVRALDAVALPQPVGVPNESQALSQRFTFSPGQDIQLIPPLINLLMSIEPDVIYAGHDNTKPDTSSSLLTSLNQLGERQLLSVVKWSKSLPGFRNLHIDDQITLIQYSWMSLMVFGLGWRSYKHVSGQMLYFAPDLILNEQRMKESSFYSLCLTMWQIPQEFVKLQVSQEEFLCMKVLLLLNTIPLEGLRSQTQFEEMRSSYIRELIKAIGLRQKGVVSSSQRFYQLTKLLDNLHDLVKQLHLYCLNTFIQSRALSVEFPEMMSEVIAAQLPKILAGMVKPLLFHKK
Outcome Measure: IC50

// IC50 lookup, compound = Cc1ccc(-c2ccc3c(cnn3-c3ccc(F)cc3)c2)cc1 , result: > 10 µM

Form: compound = CC(C)c1cc(C(C)C)c(S(=O)(=O)Nc2ccc(-c3ccc4c(cnn4-c4ccc(F)cc4)c3)c(C(F)(F)F)c2)c(C(C)C)c1 ; IC50 = > 10 µM

Per the record, CCOc1cccc(-c2ccc3c(cnn3-c3ccc(F)cc3)c2)c1 has IC50 of > 10 µM
